Overview of recorded Ki for various compounds
Target: Lysosomal acid glucosylceramidase (Homo sapiens)
Sequence (P04062 whole entry): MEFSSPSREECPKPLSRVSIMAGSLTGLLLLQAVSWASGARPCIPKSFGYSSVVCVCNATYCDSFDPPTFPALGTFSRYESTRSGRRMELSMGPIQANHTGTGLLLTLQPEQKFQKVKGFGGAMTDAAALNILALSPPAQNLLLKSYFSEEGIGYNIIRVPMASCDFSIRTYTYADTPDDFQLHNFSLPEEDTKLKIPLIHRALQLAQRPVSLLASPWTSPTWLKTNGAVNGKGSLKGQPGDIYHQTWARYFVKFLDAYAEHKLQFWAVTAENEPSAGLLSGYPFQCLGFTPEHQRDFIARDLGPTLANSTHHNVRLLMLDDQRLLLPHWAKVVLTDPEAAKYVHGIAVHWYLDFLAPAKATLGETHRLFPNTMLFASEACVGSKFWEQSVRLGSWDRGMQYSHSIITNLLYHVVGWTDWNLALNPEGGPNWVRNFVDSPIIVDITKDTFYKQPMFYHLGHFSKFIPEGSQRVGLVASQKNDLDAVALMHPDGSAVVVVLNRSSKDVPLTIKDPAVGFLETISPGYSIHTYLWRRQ
Measured Metric: Ki (µM)

Chem Smiles: O[C@@H]1[C@H](O)[C@H]2CC[C@](O)(N2)[C@H]1O
Display Unit: µM
Assay Result: 98

Chem Smiles: O[C@@H]1[C@@H](O)[C@H]2CC[C@](O)(N2)[C@@H]1O
Display Unit: µM
Assay Result: 199

Chem Smiles: O[C@@H]1C[C@H]2CC[C@](O)(N2)[C@H]1O
Display Unit: µM
Assay Result: 6.3

Chem Smiles: O[C@@H]1[C@@H](O)[C@H](O)[C@]2(O)CC[C@H]1N2
Display Unit: µM
Assay Result: 3.8

====

Biological target: Lysosomal acid glucosylceramidase (Homo sapiens, UniProt P04062)
Sequence (P04062 whole entry): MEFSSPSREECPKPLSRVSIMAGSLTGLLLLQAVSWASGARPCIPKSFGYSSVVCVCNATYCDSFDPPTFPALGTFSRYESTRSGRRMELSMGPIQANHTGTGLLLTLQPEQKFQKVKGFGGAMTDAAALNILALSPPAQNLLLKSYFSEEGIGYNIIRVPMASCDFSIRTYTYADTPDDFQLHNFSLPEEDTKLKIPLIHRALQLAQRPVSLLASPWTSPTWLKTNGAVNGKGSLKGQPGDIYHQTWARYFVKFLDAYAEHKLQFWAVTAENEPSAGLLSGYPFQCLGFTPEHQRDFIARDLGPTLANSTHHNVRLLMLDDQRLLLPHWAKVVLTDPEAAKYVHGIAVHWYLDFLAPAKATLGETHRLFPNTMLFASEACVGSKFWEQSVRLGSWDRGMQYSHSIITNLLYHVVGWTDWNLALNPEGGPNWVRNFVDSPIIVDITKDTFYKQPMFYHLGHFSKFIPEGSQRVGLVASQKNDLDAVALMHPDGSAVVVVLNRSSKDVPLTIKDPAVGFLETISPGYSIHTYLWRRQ
pIC50: −log10 of the molar value.
Measured Metric: pIC50

Chem Smiles: O[C@@H]1[C@@H](O)[C@H](O)[C@]2(O)CC[C@H]1N2
Assay Result: 5.29
--
Chem Smiles: O[C@@H]1[C@@H](O)[C@H]2CC[C@](O)(N2)[C@@H]1O
Assay Result: 3.21
--
Chem Smiles: O[C@@H]1[C@H](O)[C@H]2CC[C@](O)(N2)[C@H]1O
Assay Result: 3.76
--
Chem Smiles: O[C@@H]1C[C@H]2CC[C@](O)(N2)[C@H]1O
Assay Result: 4.80
